Reference source for all entries: PubChem BioAssay (NCI)

Assay: NCI Yeast Anticancer Drug Screen. Data for the mlh1 rad18 strain (AID 175)
Conditions: S. cerevisiae mlh1 rad18 strain growth inhibition; at 50.0 µM; stronger effect = higher value
About 79,000 compounds went through this panel and 15% of them were active in at least one assay; those are over-represented in the sample as a whole.
// reported growth inhibition per item
reported_metric: growth inhibition (%)

COC(=O)C1C(C(=O)OC)C2N(c3ccccc3)C=NN2C1C(=O)c1ccccc1 (stereo not drawn): -4.65
CC1(C=O)C(=O)CCC2(C)C3CC(=O)OC3CCC12 (stereo not drawn): -27.1
O=C1OC2C(I)C3C(C4CCCCC4)C1C23 (stereo not drawn): 7.7
